- tested_target: T1, recombinant human activated Factor VII (FVIIa) (human, UniProt P08709 61-212; P08709 213-466, Gla domain: ten glutamate residues may be gamma-carboxylated)
- T1 construct: two-chain form after cleavage between Arg152 and Ile153; light chain (Gla, EGF domains) and heavy chain (protease domain) tethered by a disulfide bond; also called rFVIIa; human FVIIa
- T1 sequence 1: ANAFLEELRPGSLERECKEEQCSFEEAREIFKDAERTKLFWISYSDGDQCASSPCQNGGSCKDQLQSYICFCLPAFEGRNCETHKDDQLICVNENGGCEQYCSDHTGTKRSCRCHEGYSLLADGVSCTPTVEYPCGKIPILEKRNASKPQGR
- T1 sequence 2: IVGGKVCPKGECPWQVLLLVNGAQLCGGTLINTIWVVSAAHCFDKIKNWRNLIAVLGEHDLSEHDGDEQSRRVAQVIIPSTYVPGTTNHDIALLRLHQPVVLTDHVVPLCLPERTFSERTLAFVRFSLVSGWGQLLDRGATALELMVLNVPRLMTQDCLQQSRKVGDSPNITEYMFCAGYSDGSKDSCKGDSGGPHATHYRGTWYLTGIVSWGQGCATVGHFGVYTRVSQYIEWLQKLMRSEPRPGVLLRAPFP
- assay_remarks: SPR (Biacore T200), antibody captured on anti-murine IgG, FVIIa injected at 5-135 nM, 1:1 model
measured_parameter: Kd (nM)

[
  {
    "binder": "mAb0001 (antibody, V domains shown, fully murine, hybridoma-derived; also called 11F26) VH: EIQLQQTGPELVKPGASVKISCKASGYSFTDYIMVWMKQSQGKTLEWIGKINPYYGDISYNLKFKGKATLTVDKSSSTVYMQLNSLASEDSAVYYCARGFYYDYFDQWGQGTTLTVSS VL: DVMVTQTPLSLPVNLGDQASISCRSSQSLVHSNGNTYLHWYLQKPGQSPKLLIYRVSDRFSGVPDRFSGSGSGTDFTLKISRVEAEDLGVYFCSQSTHVPPTFGGGTKLEIK",
    "unit_abbrev": "nM",
    "result_value": 0.17
  },
  {
    "binder": "mAb0578 (antibody, V domains shown, fully murine, hybridoma-derived; also called 12F19) VH: QVQLQQSGAELMKPGASVKISCKATGYTFNTYWIEWVKQRPGHGLEWIGEILPGRGTTNYNENFKGKATITADISSNTAYLQLSSLTGEDSAVYYCARLTPLSLRTGYWGQGTTLTVSS VL: DILLTQSPAILSVSPGERVSFSCRASQSIGTSIHWYQQRTNGSPRLLIKYASESISGIPSRFSGSGSGTDFTLSINSVESEDIADYYCQQSNSWPFTFGSGTKLEIK",
    "unit_abbrev": "nM",
    "result_value": 0.58
  },
  {
    "binder": "mAb0004 (antibody, V domains shown, fully murine, hybridoma-derived; also called 11F19) VH: QVQLKESGPGLVAPSQSLSITCTVSGFSLTDYGVSWIRQPPGKGLEWLGVIWGGGNTYNNSALKSRLSISKDNSKSQVFLKMNSLQADDTAMYFCAKHGYYGYVMDYWGQGTSVTVSS VL: DIVMTQSHKIMSTLVGDRVSITCKASQDVDPAVAWYQQKPGQYPKLLIYWASTRHTGVPDRFTGSGSGTDFTLTISNVQSEDLADYFCQQYSKYPYTFGGGTKLEIK",
    "unit_abbrev": "nM",
    "result_value": 0.16
  },
  {
    "binder": "mAb0552 (antibody, V domains shown, fully murine, hybridoma-derived; also called 11F18) VH: DVQLQESGPGLVKPSQSLSLTCTVTGYSITSDCAWNWIRQFPGNKLEWMGYINYSGSTNYNPSLKSRISITRDTSKNHFFLQLNSVTAEDTATYYCARSVDYFGNSFAVGYWGQGTSVAVSS VL: DIVMTQSPATLSVTPGDRVSLSCRASQSISDYLHWYQQKSHESPRLLIKYSSQSISGIPSRFSGSGSGSDFTLSINSVEPEDVGVYYCQNGHSFPLTFGAGTKLELK",
    "unit_abbrev": "nM",
    "result_value": 0.76
  }
]
